Data origin, for the record: ChEMBL document CHEMBL3734704

- Assay text: Cytotoxicity against mouse 3T3L1 cells preadipocytes assessed as cell viability at 1 to 10 uM for 24, 48 and 72 hrs by LDH release assay relative to control
- Condition info: 3T3-L1 preadipocyte cells
Observation type: viability at 72 h, 10 µM (%)

>  <Chemical string>
O=Cc1c(-c2nc(NCCN3CCCC3)c3ccccc3n2)[nH]c2ccccc12

>  <Observation type>
viability at 72 h, 10 µM

>  <Quantity unit>
%

>  <Recorded value>
83

$$$$
